target: human CA9 (carbonic anhydrase IX) (human, UniProt Q16790 38-414); experiment: BIAcore T100, mAb captured on anti-human IgG, antigen as analyte, 1:1 model; mAb purified by the decapping method (Decapped)
Listed binders paired with reported koff
Numbers only; they are read as s⁻¹.

zu155D5-3 (antibody, human IgG1, kappa, V domains shown, Humanized 155D5, human IgG1 kappa; Tested both protein A purified and decapped; also called zu155D5-CXXA) VH: QVQLVESGGGLVQPGGSLRLSCSASGFSLNSYAMIWVRQAPGKGLEYIGFITTGGTTYYADSVKGRFTISRDNSKNTLYLQMNSLRAEDTAVYYCARDRVKSYDDYGDLDAFEPWGQGTLVTVSS VL: DIQMTQSPSTLSASVGDRVTITCQASQSISSYLAWYQQKPGKAPKLLIYYASTLASGVPSRFSGSGSGTEFTLTISSLQCDDAATYYCLGVYGYSFDDGIAFGGGTKVEIKR
0.000351

If you can, please state the reported koff value of zu155D5-1 (antibody, human IgG1, kappa, V domains shown, Humanized 155D5, human IgG1 kappa; Tested both protein A purified (Cys80 capped) and decapped; also called zu155D5-CXXF; zu155D5-1 (huVK1-5)) VH: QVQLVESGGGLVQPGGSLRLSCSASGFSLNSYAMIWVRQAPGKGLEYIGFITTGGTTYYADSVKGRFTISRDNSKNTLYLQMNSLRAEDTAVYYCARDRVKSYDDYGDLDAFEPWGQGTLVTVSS VL: DIQMTQSPSTLSASVGDRVTITCQASQSISSYLAWYQQKPGKAPKLLIYYASTLASGVPSRFSGSGSGTEFTLTISSLQCDDFATYYCLGVYGYSFDDGIAFGGGTKVEIKR .
0.000355

Given the binder zu155D5-2 (antibody, human IgG1, kappa, V domains shown, Humanized 155D5, human IgG1 kappa; Tested both protein A purified and decapped) VH: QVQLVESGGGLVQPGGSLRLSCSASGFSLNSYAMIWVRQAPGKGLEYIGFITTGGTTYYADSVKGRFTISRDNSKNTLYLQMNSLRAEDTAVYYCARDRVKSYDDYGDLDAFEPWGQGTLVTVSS VL: DIQMTQSPSTLSASVGDRVTITCQASQSISSYLAWYQQKPGKAPKLLIYYASTLASGVPSRFSGSGSGTEFTLTITGVQCDDFATYYCLGVYGYSFDDGIAFGGGTKVEIKR , what is its reported koff?
0.00027

What measured koff goes with zu155D5-5 (antibody, human IgG1, kappa, V domains shown, Humanized 155D5, human IgG1 kappa; Tested both protein A purified and decapped) VH: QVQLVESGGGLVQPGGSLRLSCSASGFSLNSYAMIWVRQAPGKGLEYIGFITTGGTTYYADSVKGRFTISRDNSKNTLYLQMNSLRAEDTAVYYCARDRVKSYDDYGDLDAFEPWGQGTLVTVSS VL: DIQMTQSPSTLSASVGDRVTITCQASQSISSYLAWYQQKPGKAPKLLIYYASTLASGVPSRFKGSGSGTEFTLTITGVQCDDAATYYCLGVYGYSFDDGIAFGGGTKVEIKR ?
0.000273
